# Target Entity: RNA polymerase sigma70 holoenzyme, molecular beacon derivative (Ec Esigma70 beacon) (Escherichia coli) (UniProt P0A7Z4+P0A7Z4+P0A8V2+P0A8T7+P0A800+P00579)
# Experimental Protocol: RNAP beacon fluorescence
# Assay Conditions: Equilibrium RNAP molecular beacon fluorescence; 25 C and 1 nM RNAP in competition assays; buffer, salt and pH not in material; Kd error 20% (>0.4 nM), ~50% …
Observable: Kd (nM)
The reply should contain only the number, in nM.

Task item: Fill in the blank: the reported Kd of TATTTGACATCAGGAAAATTTTTCTGT (double strand) [probe 1] is ____.
Reply: 62

Task item: Fill in the blank: the reported Kd of AAAAAAAGAATTTGACATCAGGAAAATTTTTTGGT (double strand) [probe 24] is ____.
Reply: 0.19

Task item: Fill in the blank: the reported Kd of AAAAAAAGAATTTGACATCAGGAAAATTTTTTGGTTGCT (double strand) [probe 25] is ____.
Reply: 11

Task item: Fill in the blank: the reported Kd of TATAATGGGTTCAT [probe 30] is ____.
Reply: 73

Task item: Fill in the blank: the reported Kd of TGGTTGACTTTTGCCAGATACTGAGGCTGGC / GCCTCAGTATCTGGCAAAAGTCAACCA [probe 13] is ____.
Reply: 100

Task item: Fill in the blank: the reported Kd of TATTTGACATCAGGAAAATTTTTCTGTTTAA (double strand) [probe 22(-11T)] is ____.
Reply: 120

Task item: Fill in the blank: the reported Kd of TATTTGACATCAGGAAAATTTTTCTGTTTAAT (double strand) [probe 23(-11T)] is ____.
Reply: 16

Task item: Fill in the blank: the reported Kd of TGGTTGACTTTTGCCAGATACTGAGGCTGGCA / GCCTCAGTATCTGGCAAAAGTCAACCA [probe 12(-7A)] is ____.
Reply: 100

Task item: Fill in the blank: the reported Kd of TGGTTGACTTTTGCCAGATACTGAGGCTGGCT / GCCTCAGTATCTGGCAAAAGTCAACCA [probe 12] is ____.
Reply: 11
